Target: human TRPM2 (Homo sapiens)
Construct: Specific bands of full length TRPM2 (black arrow) and degradation products (gray arrows) are marked; expressed in transfected cells
Sequence (O94759 whole entry): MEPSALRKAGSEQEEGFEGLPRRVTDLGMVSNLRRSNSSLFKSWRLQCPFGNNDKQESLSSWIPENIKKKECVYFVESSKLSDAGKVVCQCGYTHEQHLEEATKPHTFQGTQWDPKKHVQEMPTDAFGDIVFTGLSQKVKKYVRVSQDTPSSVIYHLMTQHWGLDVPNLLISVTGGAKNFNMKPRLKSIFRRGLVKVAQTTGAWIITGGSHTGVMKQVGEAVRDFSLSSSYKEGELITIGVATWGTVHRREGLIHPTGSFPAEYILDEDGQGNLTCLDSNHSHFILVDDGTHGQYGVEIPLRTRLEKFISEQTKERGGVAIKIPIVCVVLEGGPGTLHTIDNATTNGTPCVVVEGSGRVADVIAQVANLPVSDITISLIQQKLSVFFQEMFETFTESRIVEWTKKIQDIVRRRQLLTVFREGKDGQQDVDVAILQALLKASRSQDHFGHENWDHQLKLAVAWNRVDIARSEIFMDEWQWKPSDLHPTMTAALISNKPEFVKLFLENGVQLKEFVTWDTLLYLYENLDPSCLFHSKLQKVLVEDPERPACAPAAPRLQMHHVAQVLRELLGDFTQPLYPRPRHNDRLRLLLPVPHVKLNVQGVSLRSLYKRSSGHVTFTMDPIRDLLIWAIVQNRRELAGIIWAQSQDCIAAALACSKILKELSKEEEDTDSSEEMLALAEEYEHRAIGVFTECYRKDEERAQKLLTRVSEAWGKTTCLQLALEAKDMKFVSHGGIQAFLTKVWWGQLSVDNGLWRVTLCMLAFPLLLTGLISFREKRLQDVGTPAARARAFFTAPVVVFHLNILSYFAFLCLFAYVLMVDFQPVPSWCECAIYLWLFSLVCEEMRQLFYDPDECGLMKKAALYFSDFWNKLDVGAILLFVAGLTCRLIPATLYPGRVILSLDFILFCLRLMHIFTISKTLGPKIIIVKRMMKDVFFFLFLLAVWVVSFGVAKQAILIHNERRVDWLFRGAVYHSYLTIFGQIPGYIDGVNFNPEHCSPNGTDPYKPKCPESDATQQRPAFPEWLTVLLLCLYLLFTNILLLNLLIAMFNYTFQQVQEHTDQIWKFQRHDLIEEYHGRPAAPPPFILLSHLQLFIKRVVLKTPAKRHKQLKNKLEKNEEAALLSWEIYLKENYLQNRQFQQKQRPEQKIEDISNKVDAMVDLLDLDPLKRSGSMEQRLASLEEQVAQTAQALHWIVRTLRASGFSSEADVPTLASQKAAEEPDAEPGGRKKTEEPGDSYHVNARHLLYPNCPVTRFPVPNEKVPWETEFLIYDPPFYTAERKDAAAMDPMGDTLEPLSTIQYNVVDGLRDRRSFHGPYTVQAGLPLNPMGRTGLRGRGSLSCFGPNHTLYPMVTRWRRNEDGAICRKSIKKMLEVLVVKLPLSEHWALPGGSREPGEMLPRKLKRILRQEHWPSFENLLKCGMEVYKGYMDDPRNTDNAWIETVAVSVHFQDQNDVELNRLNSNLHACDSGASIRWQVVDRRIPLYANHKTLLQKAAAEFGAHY
Test: Whole-cell patch clamp, antagonism of TRPM2 activation by 100 μM ADPR in HEK293 clone TRPM2#24
Type: cell-based
Settings: against 100 μM ADPR (1) in pipet solution; outward current at +15 mV; HEK293 clone TRPM2#24; read-out: Antagonism at TRPM2 (IC50)
PARAMETER_MEASURED: IC50

Nc1ncnc2c1nc(-c1ccc(CC(N)C(=O)O)cc1)n2[C@@H]1O[C@H](COP(=O)(O)O)[C@@H](O)[C@H]1O (some centres unmarked) [compound 9] :: 100 to 900 µM

Continue with the compound presented below.
(Q) Item Nc1ncnc2c1ncn2[C@H]1C[C@H](O)[C@@H](COP(=O)(O)O)O1 [compound 31, 2′-deoxy-AMP, reference compound] : provide IC50
(A) 100 to 900 µM
